pIC50: −log10 of the molar value.
pIC50 data for 3-hydroxy-3-methylglutaryl-coenzyme A reductase (Rattus norvegicus, UniProt P51639) follow.
Assay Endpoint: pIC50

[
  {
    "Compound Structure": "O=C(O)C[C@H](O)C[C@H](O)CCn1c(C(F)(F)F)nc(-c2ccc(F)cc2)c1-c1cccnc1",
    "Target Or System": "3-hydroxy-3-methylglutaryl-coenzyme A reductase (Rattus norvegicus, UniProt P51639)",
    "Assay Endpoint": "pIC50",
    "Qualifier": "<",
    "Numeric Readout": 6.00
  },
  {
    "Compound Structure": "Cc1cc(-c2nc(C(C)C)n(/C=C/[C@@H](O)C[C@@H](O)CC(=O)O)c2-c2ccc(F)cc2)cc(C)c1Cl",
    "Target Or System": "3-hydroxy-3-methylglutaryl-coenzyme A reductase (Rattus norvegicus, UniProt P51639)",
    "Assay Endpoint": "pIC50",
    "Qualifier": "=",
    "Numeric Readout": 8.70
  },
  {
    "Compound Structure": "COc1ccc(-c2c(-c3ccc(F)cc3)nc(C(F)(F)F)n2CC[C@@H](O)C[C@@H](O)CC(=O)O)cc1",
    "Target Or System": "3-hydroxy-3-methylglutaryl-coenzyme A reductase (Rattus norvegicus, UniProt P51639)",
    "Assay Endpoint": "pIC50",
    "Qualifier": "=",
    "Numeric Readout": 6.38
  },
  {
    "Compound Structure": "COc1ccc(-c2nc(C(F)(F)F)n(CC[C@@H](O)C[C@@H](O)CC(=O)O)c2-c2ccc(F)cc2)cc1",
    "Target Or System": "3-hydroxy-3-methylglutaryl-coenzyme A reductase (Rattus norvegicus, UniProt P51639)",
    "Assay Endpoint": "pIC50",
    "Qualifier": "=",
    "Numeric Readout": 7.17
  }
]

---

- Target Or System: 3-hydroxy-3-methylglutaryl-coenzyme A reductase (Rattus norvegicus, UniProt P51639)
- Sequence (P51639 whole entry): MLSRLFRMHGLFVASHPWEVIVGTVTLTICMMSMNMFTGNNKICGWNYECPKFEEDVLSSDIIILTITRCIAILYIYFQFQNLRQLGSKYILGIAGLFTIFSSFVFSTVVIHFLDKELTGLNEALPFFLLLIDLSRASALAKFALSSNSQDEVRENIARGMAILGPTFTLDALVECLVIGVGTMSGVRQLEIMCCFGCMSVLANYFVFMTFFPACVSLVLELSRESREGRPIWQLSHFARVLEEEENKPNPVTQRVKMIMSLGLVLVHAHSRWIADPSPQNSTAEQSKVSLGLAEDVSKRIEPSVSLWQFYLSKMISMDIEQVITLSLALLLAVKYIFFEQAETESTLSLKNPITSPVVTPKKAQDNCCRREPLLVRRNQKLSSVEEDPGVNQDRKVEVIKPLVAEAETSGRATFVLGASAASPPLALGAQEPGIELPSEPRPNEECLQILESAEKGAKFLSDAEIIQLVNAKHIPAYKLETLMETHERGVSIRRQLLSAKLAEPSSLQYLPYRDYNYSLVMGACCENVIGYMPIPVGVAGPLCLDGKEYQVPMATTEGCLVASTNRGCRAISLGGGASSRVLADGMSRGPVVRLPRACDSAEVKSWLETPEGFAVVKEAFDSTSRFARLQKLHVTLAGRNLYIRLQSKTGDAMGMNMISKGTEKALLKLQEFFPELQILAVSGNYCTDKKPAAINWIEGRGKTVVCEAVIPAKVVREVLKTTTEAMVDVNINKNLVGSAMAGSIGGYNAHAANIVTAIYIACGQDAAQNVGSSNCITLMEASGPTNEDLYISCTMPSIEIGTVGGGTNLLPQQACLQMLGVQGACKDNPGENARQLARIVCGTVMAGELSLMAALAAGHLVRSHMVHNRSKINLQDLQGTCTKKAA
pIC50: −log10 of the molar value.
Tick t if pIC50 is 8 or greater. Tick f if pIC50 is less than 8.

[
  {
    "Compound Structure": "Cc1ccc(-c2nc(C(F)(F)F)n(CC[C@@H](O)C[C@@H](O)CC(=O)O)c2-c2ccc(F)cc2)cc1",
    "Answer Label": "f"
  },
  {
    "Compound Structure": "CC(C)c1nc(-c2ccc(F)cc2)c(-c2ccc(F)cc2)n1/C=C/[C@@H](O)C[C@@H](O)CC(=O)O",
    "Answer Label": "t"
  },
  {
    "Compound Structure": "Cc1ccc(-c2c(-c3ccc(F)cc3)nc(C(F)(F)F)n2CC[C@@H](O)C[C@@H](O)CC(=O)O)cc1",
    "Answer Label": "f"
  },
  {
    "Compound Structure": "Cc1cc(C)cc(-c2nc(C(F)(F)F)n(CC[C@@H](O)C[C@@H](O)CC(=O)O)c2-c2ccc(F)cc2)c1",
    "Answer Label": "f"
  },
  {
    "Compound Structure": "O=C(O)C[C@H](O)C[C@H](O)CCn1c(C(F)(F)F)nc(-c2ccc(F)cc2)c1-c1cccc(Cl)c1",
    "Answer Label": "f"
  },
  {
    "Compound Structure": "Cc1cc(F)ccc1-c1c(-c2ccc(F)cc2)nc(C(C)C)n1/C=C/[C@@H](O)C[C@@H](O)CC(=O)O",
    "Answer Label": "t"
  },
  {
    "Compound Structure": "Cc1cc(-c2c(-c3ccc(F)cc3)nc(C(F)(F)F)n2CC[C@@H](O)C[C@@H](O)CC(=O)O)cc(C)c1F",
    "Answer Label": "f"
  },
  {
    "Compound Structure": "Cc1cccc(-c2nc(C(F)(F)F)n(CC[C@@H](O)C[C@@H](O)CC(=O)O)c2-c2ccc(F)cc2)c1",
    "Answer Label": "f"
  }
]
